Listed here are compounds together with their documented cell viability.
test system: P12-Ichikawa; experiment: cell viability relative to DMSO control; higher = less cytotoxic; conditions: RPMI 5 mM glucose + 10% FBS; 48 h; 15.4 µM
Field format: number, assumed %, no unit text.

| compound | measuredNumber |
| --- | --- |
| O=C1CCC[C@@H]2[C@H]3CCCN4CCC[C@@H](CN12)[C@@H]34 | 87.6 |
| NC(=O)[C@H]1CCS[C@@H]2C[C@]3(CCCN3C(=O)Cc3ccc(NC(=O)COc4ccc(Cl)cc4Cl)cc3)C(=O)N12 | 22.9 |

Request: cell viability, test system P12-Ichikawa, entry CC[C@]12CC[C@H]3[C@@H](CCC/4=C/C(=O)CC[C@H]34)[C@@H]1CC[C@@]2(O)C#C
79.6

Request: cell viability, test system P12-Ichikawa, entry N[C@H]2CN(CC12CC1)c3c(F)cc4c(c3Cl)[N@@](C=C(C4=O)C(=O)O)C5C[C@H]5F (some centres undefined)
83.5

Reference source: the supplement of paper PMC11451515
